Ref: patent US20230272011A1

# tested-target: T1, mouse serum albumin (mouse, UniProt P07724 25-608)
# T1 construct: also called MSA
# T1 sequence (P07724 25-608 limits assumed): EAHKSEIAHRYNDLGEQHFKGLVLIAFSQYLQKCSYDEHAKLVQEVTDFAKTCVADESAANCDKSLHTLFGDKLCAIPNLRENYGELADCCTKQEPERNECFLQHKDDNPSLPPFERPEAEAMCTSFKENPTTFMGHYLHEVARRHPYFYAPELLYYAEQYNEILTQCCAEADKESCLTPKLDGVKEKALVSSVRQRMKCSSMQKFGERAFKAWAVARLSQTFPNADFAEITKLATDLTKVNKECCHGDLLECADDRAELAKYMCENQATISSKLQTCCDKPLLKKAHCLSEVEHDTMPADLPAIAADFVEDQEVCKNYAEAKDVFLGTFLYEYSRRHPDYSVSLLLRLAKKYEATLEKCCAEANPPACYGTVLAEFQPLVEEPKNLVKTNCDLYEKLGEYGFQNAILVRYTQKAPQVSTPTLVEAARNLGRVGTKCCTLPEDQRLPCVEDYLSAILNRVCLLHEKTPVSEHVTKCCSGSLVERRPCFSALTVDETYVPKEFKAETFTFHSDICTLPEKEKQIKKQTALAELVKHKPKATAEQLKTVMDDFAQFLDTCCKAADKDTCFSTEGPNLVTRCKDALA
# assay-explanation: BLI (Octet), biotinylated albumin on SA sensor, pH 7.4
pKd: −log10 of the molar value.
pKd of 7 or higher: true. Under 7: false.

[
  {
    "binder": "HSA-41 (designed binder, also called HSA-41 parent; HSA-41 AH parent) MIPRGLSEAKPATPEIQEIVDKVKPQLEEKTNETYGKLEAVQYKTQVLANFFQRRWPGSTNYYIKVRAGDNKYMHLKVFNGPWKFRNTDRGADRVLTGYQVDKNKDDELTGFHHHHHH",
    "group-label": "true"
  },
  {
    "binder": "HSA-36 (designed binder) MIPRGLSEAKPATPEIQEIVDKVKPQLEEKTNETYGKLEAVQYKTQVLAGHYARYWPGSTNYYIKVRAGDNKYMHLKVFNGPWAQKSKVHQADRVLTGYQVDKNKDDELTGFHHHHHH",
    "group-label": "false"
  },
  {
    "binder": "HSA-20 (designed binder) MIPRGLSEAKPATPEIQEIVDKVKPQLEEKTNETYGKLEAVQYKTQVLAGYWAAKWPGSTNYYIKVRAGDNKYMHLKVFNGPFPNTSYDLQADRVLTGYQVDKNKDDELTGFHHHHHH",
    "group-label": "false"
  },
  {
    "binder": "HSA-18 (designed binder, also called HSA-18 monomer) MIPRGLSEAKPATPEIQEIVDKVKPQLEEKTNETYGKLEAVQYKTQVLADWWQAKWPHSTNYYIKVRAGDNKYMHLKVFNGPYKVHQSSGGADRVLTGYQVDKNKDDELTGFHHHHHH",
    "group-label": "false"
  },
  {
    "binder": "HSA-31 (designed binder) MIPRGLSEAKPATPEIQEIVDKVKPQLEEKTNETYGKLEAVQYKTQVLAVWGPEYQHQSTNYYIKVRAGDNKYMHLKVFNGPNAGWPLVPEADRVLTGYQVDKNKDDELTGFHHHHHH",
    "group-label": "true"
  }
]
